# assayDetails: Toxicokinetics of cereulide in rabbits after a single intravenous injection (plasma, UPLC-MS/MS)
# Type: in vivo, New Zealand White rabbits
# conditionContext: both sexes, New Zealand White, rabbit, plasma, iv, 5 ug, single i.v. 5 μg cereulide/rabbit, plasma, UPLC-MS/MS, non-compartmental, n = 8, median, read-out: MRTlast, mean retention time until the last time point

{"columns": ["compound", "MRT [h]"],
 "data": [
  ["CC(C)C[C@H]1OC(=O)[C@H](C(C)C)NC(=O)[C@H](C(C)C)OC(=O)[C@@H](C)NC(=O)[C@@H](CC(C)C)OC(=O)[C@H](C(C)C)NC(=O)[C@H](C(C)C)OC(=O)[C@@H](C)NC(=O)[C@@H](CC(C)C)OC(=O)[C@H](C(C)C)NC(=O)[C@H](C(C)C)OC(=O)[C@@H](C)NC1=O [cereulide]", 10.6]
]}
